Target: BRD4 (BD1) (Homo sapiens)
Construct: with relatively long constructs also being possible, preferably amino acids 44-168
Assay: Binding assay BRD4/acetylated peptide H4 (TR-FRET protein-protein interaction assay)
IC50 by entry:
Numeric answer only, unit nM assumed.

Use the examples below as a reference point.
{"COMPOUND": "CNC(=O)N1N=C(c2cccnc2)c2cc(OC)ccc2CC1C (racemic)", "STUDY_TARGET": "BRD4 (BD1) (Homo sapiens)", "UNIT_TAG": "nM", "IC50": 590}
{"COMPOUND": "CNC(=O)N1N=C(c2ccc(N3CCC3)cc2)c2cc(OC)c(OC)cc2C[C@H]1C", "STUDY_TARGET": "BRD4 (BD1) (Homo sapiens)", "UNIT_TAG": "nM", "IC50": 3980}
{"COMPOUND": "CNC(=O)N1N=C(c2ccc(-c3cnoc3)cc2)c2cc(OC)c(OC)cc2CC1C (racemic)", "STUDY_TARGET": "BRD4 (BD1) (Homo sapiens)", "UNIT_TAG": "nM", "IC50": 50}

Next up:
Quick one: IC50 of CNC(=O)N1N=C(c2ccc(-c3ccc(C)cc3)cc2)c2cc(OC)c(OC)cc2CC1C (racemic) ?
110

* * *

Test system: KMS-12-PE cells
Test: Cell proliferation assay (alamarBlue), KMS-12-PE
Type: cell-based
Conditions: Homo sapiens, 120 hours incubation, inhibition of cell proliferation
IC50 by entry:
Numeric answer only, unit µM assumed.

Use the examples below as a reference point.
{"MOLECULE": "CNC(=O)N1N=C(c2ccc(-c3cc[nH]n3)cc2)c2cc(OC)c(OC)cc2CC1C (racemic)", "UNIT_TAG": "µM", "IC50": 0.23}
{"MOLECULE": "CNC(=O)N1N=C(c2ccc(-n3nc(-c4ccccc4)cc3C)cc2)c2cc(OC)c(OC)cc2CC1C (racemic)", "UNIT_TAG": "µM", "IC50": 0.06}
{"MOLECULE": "CNC(=O)N1N=C(c2ccc(N3CC(F)C3)cc2)c2cc(OC)c(OC)cc2CC1C (racemic)", "UNIT_TAG": "µM", "IC50": 0.12}
{"MOLECULE": "CNC(=O)N1N=C(c2ccc(-c3c(C)noc3C)cc2)c2cc(OCCCN3CCOCC3)ccc2CC1C (racemic)", "UNIT_TAG": "µM", "IC50": 0.12}

Next up:
Quick one: IC50 of `CNC(=O)N1N=C(c2ccc(N3CCN(C)CC3)cc2)c2cc(OC)c(OC)cc2C[C@@H]1C` ?
0.09

* * *

Molecular target: BRD4 (BD1) (Homo sapiens, UniProt O60885)
Construct: with relatively long constructs also being possible, preferably amino acids 44-168
Experiment: Binding assay BRD4/acetylated peptide H4 (TR-FRET protein-protein interaction assay)
READOUT_LABEL: IC50 (nM)
Numeric answer only, unit nM assumed.

Quick one: IC50 of CNC(=O)N1N=C(c2ccc(-c3c(C)noc3C)cc2)c2cc(NC(C)=O)ccc2CC1C (racemic) ?
180

Quick one: IC50 of CNC(=O)N1N=C(c2ccc(Cl)cc2)c2ccc(-c3ccc(F)cc3)cc2CC1C (racemic) ?
11400

Quick one: IC50 of CNC(=O)N1N=C(c2ccc(N3CCC(OC)CC3)cc2)c2cc(OC)c(OC)cc2CC1C (racemic) ?
70

Quick one: IC50 of `CNC(=O)N1N=C(c2ccc(-c3c(C)noc3C)cc2)c2cc(OC)c(OC(F)F)cc2C[C@H]1C` ?
560

Quick one: IC50 of CNC(=O)N1N=C(c2ccc(N3CCN(CCO)CC3)cc2)c2ccc(OC(F)(F)F)cc2CC1C (racemic) ?
880
